# z-score values compiled below
- ASSAY_NAME: JC-1 mitochondrial potential readout, lung cancer cells – cell-based, A549, JC-1 fluorescence, basal, 24 h, 100 nL, profiling panel (AID 1138);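 further: A549 lung adenocarcinoma cells under basal conditions with no added stimulus; test concentration not given here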
- STUDY_CONDITIONS: higher = more signal
Lab note: record just the number, no unit beside it.

Solved entries (count: 3):
INSERT INTO results (compound, parameter, result_number) VALUES
  ('COc1ccc([Si](C)(C)[C@H]2[C@H](CC(=O)N3CCC[C@H]3CO)O[C@@]3(C(=O)N(Cc4cccc(N5CCC5=O)c4)c4ccccc43)[C@@H]2C)cc1', 'z-score', 1.4),
  ('CCCCC(=C=CC[C@H](O)c1ccccc1OCCO)C[C@H](O)c1cc(Cl)cc(Cl)c1O', 'z-score', -0.343),
  ('C=C(C)[C@@H]1CC=C(C(O)C2C=CC3C(=O)N(Cc4ccccc4)C(=O)C3N2n2cnnc2)CC1 (some centres undefined)', 'z-score', -1.11);

Next up:
Would you mind telling me what z-score value was observed for O=C1OCC=C[C@H]2OC34C=CCN(c5ccc6ccccc6c5)C(=O)[C@H]3N(CCO)C(=O)[C@@H]4[C@@H]12 (some centres undefined) ?
1.51
